# Test system: HCC-2998 colon
# assayProcedure: NCI-60 one-dose screen, 48 h
# measurementSetup: 10 µM unless noted
Compounds without any hit were thinned out: in the full panel of roughly 83,000, 20% have a hit. Calls of active or inactive are those of the source. The calls were made as follows: active = growth percent below 10; inactive = the rest.
Can you answer with just one of these options? active, inactive

Below are worked cases with known answers.
CCCCC1Nc2nc(SC)n(C)c(=O)c2CN(Cc2ccccc2)C1=O (configuration not stated) ... inactive
Cn1c(N)c(N=O)c(=O)[nH]c1=O ... inactive
O=C1C2C3C=CC(O3)C2C(=O)N1Nc1ccccc1 (configuration not stated) ... inactive
CC[N+](C)(CC)CCCC(C)Nc1ccnc2cc(Cl)ccc12 (configuration not stated) ... inactive
COc1ccc2c(c1)C(=O)c1c-2c(OCCN(C)C)nc2cc(OC)ccc12 ... active
COc1ccc(/C=C2\NC(=S)NC2=O)cc1 ... inactive
O=C1Nc2ccccc2C12Nc1cc(Cl)ccc1S2 (configuration not stated) ... inactive
COc1cc2c(cc1OC)C1CCN3C(=O)CCC3N1CC2 (configuration not stated) ... inactive

Prompt line: Kindly provide the recorded test outcome for the following molecule: CCN(CC)CCCNCCCNc1cc(OC)cc2cccnc12
Response line: inactive

Prompt line: Kindly provide the recorded test outcome for the following molecule: COc1ccc2c(c1)nc(N)c1c3cc(OC)c(OC)cc3cn21
Response line: inactive

Prompt line: Kindly provide the recorded test outcome for the following molecule: O=C(CSc1nnc(Nc2ccccc2)s1)NCCc1ccc(F)cc1
Response line: inactive

Prompt line: Kindly provide the recorded test outcome for the following molecule: O=C(/C=C/c1cc2ccccc2[nH]c1=O)c1ccc(Cl)cc1
Response line: inactive

----------
# Test system: NCI-H23 lung
# assayProcedure: NCI-60 one-dose screen, 48 h
# measurementSetup: 10 µM unless noted
The panel holds about 83,000 compounds, 20% with a hit somewhere; the sample as a whole holds those more often. The source made the active and inactive calls. The calls were made as follows: active = growth percent below 10; inactive = the rest.
Can you answer with just one of these options? active, inactive

Below are worked cases with known answers.
O=[N+]([O-])c1ccc(N/N=C\c2ccccc2[N+](=O)[O-])nc1 ... inactive
C[C@]12CC[C@@H]3c4ccc(O)c([N+](=O)[O-])c4CC[C@H]3[C@@H]1CC[C@@H]2NS(=O)(=O)c1ccc(C(F)(F)F)cc1 ... inactive
Cc1c(C(N)=O)sc2c1C(=O)N(Cc1ccccc1)C1=NN=C(c3ccc(Cl)cc3)CN12 ... inactive

Prompt line: Kindly provide the recorded test outcome for the following compound: Cc1cc(C(=O)O)c(C)cc1C(=O)O
Response line: inactive

Prompt line: Kindly provide the recorded test outcome for the following compound: COc1cc(C2CC(c3ccc(C)cc3)=NN2C(C)=O)ccc1Oc1ccnc2cc(Cl)ccc12 (centres undefined)
Response line: inactive

Prompt line: Kindly provide the recorded test outcome for the following compound: Oc1ccccc1/C=N\Nc1ccccc1
Response line: inactive

Prompt line: Kindly provide the recorded test outcome for the following compound: Cc1cc2c(C#N)n3c(c2cc1C)C(=O)C(c1ccccc1)Oc1ccccc1-3 (centres undefined)
Response line: inactive

Prompt line: Kindly provide the recorded test outcome for the following compound: CC(=O)c1ccc2c3c(n(C)c2c1)CCCC3
Response line: inactive

Prompt line: Kindly provide the recorded test outcome for the following compound: COc1cc2cn3c4ccc(O)cc4nc(N)c3c2cc1OC
Response line: active

----------
Listed here are compounds together with their documented growth.
# System: MDA-MB-231 breast
# assayProcedure: NCI-60 one-dose screen, 48 h (100 = growth as untreated, 0 = no growth, -100 = all killed)
# measurementSetup: 10 µM unless noted
This is part of a sample that, as a whole, favours compounds with a hit. Of some 83,000 tested, about 20% had one in any assay.
Report the figure in % without appending any unit label.

NS(=O)(=O)c1ccc(NC2=C(Cl)C(=O)c3ccccc3C2=O)cc1 ... 79.7

Prompt line: Would you kindly share the measured growth for O=C(/C=C/c1cccnc1)/C=C/c1cccnc1 ?
Response line: 20.4

Prompt line: Would you kindly share the measured growth for Cc1c(C(N)=O)sc2ncn(CC(=O)Nc3ccc(Cl)cc3)c(=O)c12 ?
Response line: 108

Prompt line: Would you kindly share the measured growth for Cc1scc2c1N(C(=O)CN1CCN(C)CC1)c1ccccc1NC2=O ?
Response line: 99.6

Prompt line: Would you kindly share the measured growth for Cc1cc(N2CCOCC2)nc(N2CCOCC2)n1 ?
Response line: 114

Prompt line: Would you kindly share the measured growth for C[n+]1ccc(Nc2ccc(NC(=O)c3ccc(Nc4cc[n+](C)c5ccc(N)cc45)cc3)cc2)cc1 ?
Response line: 97
